target_of_assay: hTLR8 (Homo sapiens, UniProt Q9NR97)
Construct: host or cells: HEK293 cells stably transfected with hTLR8
Sequence (Q9NR97 27-1041): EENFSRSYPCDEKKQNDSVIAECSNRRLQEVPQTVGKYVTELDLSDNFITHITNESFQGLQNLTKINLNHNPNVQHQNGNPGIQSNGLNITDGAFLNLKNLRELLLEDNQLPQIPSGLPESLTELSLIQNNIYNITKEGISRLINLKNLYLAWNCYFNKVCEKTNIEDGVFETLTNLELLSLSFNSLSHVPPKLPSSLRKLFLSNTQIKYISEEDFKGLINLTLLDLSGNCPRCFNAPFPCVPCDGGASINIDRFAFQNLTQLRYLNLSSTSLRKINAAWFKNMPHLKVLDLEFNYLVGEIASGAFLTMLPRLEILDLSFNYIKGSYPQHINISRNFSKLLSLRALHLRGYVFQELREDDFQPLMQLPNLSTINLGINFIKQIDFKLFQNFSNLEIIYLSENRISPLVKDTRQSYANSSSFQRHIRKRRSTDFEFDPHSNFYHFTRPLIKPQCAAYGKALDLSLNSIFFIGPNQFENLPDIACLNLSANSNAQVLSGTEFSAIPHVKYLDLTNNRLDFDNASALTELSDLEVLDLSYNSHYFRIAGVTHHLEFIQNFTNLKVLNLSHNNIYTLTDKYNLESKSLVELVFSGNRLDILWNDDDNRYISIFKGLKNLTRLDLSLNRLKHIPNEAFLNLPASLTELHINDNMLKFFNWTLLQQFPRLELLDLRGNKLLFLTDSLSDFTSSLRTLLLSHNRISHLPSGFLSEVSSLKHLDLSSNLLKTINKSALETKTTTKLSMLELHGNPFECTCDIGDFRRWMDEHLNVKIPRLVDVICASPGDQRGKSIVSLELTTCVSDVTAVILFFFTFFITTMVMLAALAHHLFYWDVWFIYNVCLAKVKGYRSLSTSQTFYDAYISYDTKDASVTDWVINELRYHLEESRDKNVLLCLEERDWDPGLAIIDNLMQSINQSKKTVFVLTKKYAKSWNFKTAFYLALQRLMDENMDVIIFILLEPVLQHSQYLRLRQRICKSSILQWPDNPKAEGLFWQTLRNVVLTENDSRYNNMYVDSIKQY
measurement_protocol: HEK-293 hTLR8 transfectant antagonist assay (NF-κB driven SEAP reporter)
Format: cell-based
protocol_conditions: IC50, nM, vs. VTX-378 1 μM, hTLR8 reporter cells; TLR8 agonist VTX-378 (Compound A) 1 μM
Collected IC50 values appear next to each entry.

smiles_data: CCCN(CC(N)=O)C(=O)C1=Cc2cc(-c3ccc(C(=O)N4CCCC4)cc3C)ccc2N=C(N)C1
IC50: < 1000 nM

smiles_data: CCOC(=O)C1=Cc2cc(-c3ccc(S(=O)(=O)N(C)C)cc3)ccc2N=C(N)C1
IC50: 1000 to 10000 nM

smiles_data: CCOC(=O)C1=Cc2cc(Oc3ccccc3C)ccc2N=C(N)C1
IC50: 1000 to 10000 nM

smiles_data: CC(C)NC(=O)C1=Cc2cc(-c3ccc(C(=O)N4CCCC4)cc3)ccc2N=C(N)C1
IC50: 1000 to 10000 nM

smiles_data: CCOC(=O)C1=Cc2cc(-c3ccccc3C(F)(F)F)ccc2N=C(N)C1
IC50: 1000 to 10000 nM

smiles_data: CCOC(=O)C1=Cc2cc(C(=O)OC(C)C)ccc2N=C(N)C1
IC50: 1000 to 10000 nM

smiles_data: CCOC(=O)C1=Cc2cc(-c3ccc(C(=O)N4CCCC4)cc3)ccc2N=C(NOC)C1
IC50: ≥ 10000 nM

smiles_data: CCOC(=O)C1=Cc2cc(Oc3cccc(C(F)(F)F)c3)ccc2N=C(N)C1
IC50: 1000 to 10000 nM

smiles_data: CCOC(=O)C1=Cc2cc(-c3cccc(OC)c3Cl)ccc2N=C(N)C1
IC50: < 1000 nM

smiles_data: CCOC(=O)C1=Cc2cc(-c3ccc(C(=O)N4CCCC4)cc3C)ccc2N=C(N)C1
IC50: < 1000 nM

smiles_data: NC1=Nc2ccc(-c3ccc(C(=O)N4CCCC4)cc3)cc2C=C(Br)C1
IC50: < 1000 nM

smiles_data: CCOC(=O)C1=Cc2cc(Oc3ccc(OC)cc3)ccc2N=C(N)C1
IC50: 1000 to 10000 nM

smiles_data: CCOC(=O)C1=Cc2cc(-c3cccc(C(F)(F)F)c3)ccc2N=C(N)C1
IC50: 1000 to 10000 nM

smiles_data: CCOC(=O)C1=Cc2cc(-c3cccc(OC)c3)ccc2N=C(N)C1
IC50: 1000 to 10000 nM

smiles_data: CCOC(=O)C1=Cc2cc(-c3ccc(N4CCCC4=O)cc3)ccc2N=C(N)C1
IC50: 1000 to 10000 nM

smiles_data: CCOC(=O)C1=Cc2cc(-c3ccccc3Cl)ccc2N=C(N)C1
IC50: < 1000 nM

smiles_data: CCOC(=O)C1=Cc2cc(-c3cccc(C(=O)N(C)C)c3)ccc2N=C(N)C1
IC50: 1000 to 10000 nM

smiles_data: CCOC(=O)C1=Cc2cc(-c3ccc(C(=O)N4CCCC4)cc3Cl)ccc2N=C(N)C1
IC50: < 1000 nM

smiles_data: CCOC(=O)C1=Cc2cc(-c3ccc(N4CCOC4=O)cc3Cl)ccc2N=C(N)C1
IC50: < 1000 nM

smiles_data: CCOC(=O)C1=Cc2cc(C3=CCN(C(=O)OCC)CC3)ccc2N=C(N)C1
IC50: < 1000 nM

smiles_data: CCOC(=O)C1=Cc2cc(-c3ccc(NC(=O)N(C)C)cc3)ccc2N=C(N)C1
IC50: 1000 to 10000 nM

smiles_data: CCOC(=O)C1=Cc2cc(-c3ccccc3OC)ccc2N=C(N)C1
IC50: < 1000 nM

smiles_data: CCOC(=O)C1=Cc2cc(Nc3ccccc3)ccc2N=C(N)C1
IC50: 1000 to 10000 nM

smiles_data: CCOC(=O)C1=Cc2cc(Oc3ccccc3)ccc2N=C(N)C1
IC50: 1000 to 10000 nM

smiles_data: CCCN(CC(N)=O)C(=O)C1=Cc2cc(-c3ccc(C(=O)N4CCCC4)cc3Cl)ccc2N=C(N)C1
IC50: < 1000 nM

smiles_data: CCOC(=O)C1=Cc2cc(-c3ccc(C)cc3)ccc2N=C(N)C1
IC50: 1000 to 10000 nM
